Values compiled from PubChem BioAssay.

# test-name: small-molecule microarray binders of probe aEGFR, primary screen, biochemical, biotinylated probe, 635/667 nm fluorescence (AID 1097);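 also: probe is a biotinylated anti-EGFR antibody binding compounds printed on slides; score combines fluorescence near 667 nm and signal to noise of each spot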
# applied-conditions: higher = more signal
Threshold rule: composite z-score greater than or equal to 0.006 is 1 (yes); below that, 0 (no).

Worked set:
compound | assigned-label
COCCCNC(=O)[C@@]1(c2ccc([N+](=O)[O-])cc2)CC(=O)N(CC23CC4CC(CC(C4)C2)C3)[C@@H]1c1ccc(CO)cc1 | 1 (yes)
O=C1O[C@@H](c2ccccc2)[C@@H](c2ccccc2)N2[C@@H](c3ccc(OCCO)cc3)[C@]3(C(=O)Nc4ccccc43)[C@@H](C(=O)Nc3nc4ccccc4s3)[C@H]12 | 1 (yes)
N#Cc1ccc(NN2C(C(O)C3CCCCC3)C=CC3C(=O)N(c4ccccc4)C(=O)C32)cc1 (configuration not stated) | 1 (yes)
COc1ccc(C#Cc2ccc3c(c2)[C@]2(C(=O)N3)[C@H](c3ccc(O)cc3)N3[C@H](c4ccccc4)[C@H](c4ccccc4)OC(=O)[C@H]3[C@@H]2C(=O)NC[C@H](O)c2ccccc2)cc1 | 1 (yes)
C=C(CCCC)C(=O)CC[C@H](OC(=O)c1cccnc1)c1cccc(OCCO)c1 | 0 (no)

Q: Kindly determine if composite z-score recorded for O=c1cccc(C=Cc2ccccc2)o1 is above or exactly 0.006.
A: 0 (no)

Q: Another: COC(=O)C1=CC(CCCO)=CC(C2CC2)N(Cc2sc3ccccc3c2Cl)C=C1C(=O)OC (configuration not stated)
A: 1 (yes)
